# Test System: Estrogen receptor beta (Homo sapiens) (UniProt Q92731)
# Sequence (Q92731 whole entry, looked up): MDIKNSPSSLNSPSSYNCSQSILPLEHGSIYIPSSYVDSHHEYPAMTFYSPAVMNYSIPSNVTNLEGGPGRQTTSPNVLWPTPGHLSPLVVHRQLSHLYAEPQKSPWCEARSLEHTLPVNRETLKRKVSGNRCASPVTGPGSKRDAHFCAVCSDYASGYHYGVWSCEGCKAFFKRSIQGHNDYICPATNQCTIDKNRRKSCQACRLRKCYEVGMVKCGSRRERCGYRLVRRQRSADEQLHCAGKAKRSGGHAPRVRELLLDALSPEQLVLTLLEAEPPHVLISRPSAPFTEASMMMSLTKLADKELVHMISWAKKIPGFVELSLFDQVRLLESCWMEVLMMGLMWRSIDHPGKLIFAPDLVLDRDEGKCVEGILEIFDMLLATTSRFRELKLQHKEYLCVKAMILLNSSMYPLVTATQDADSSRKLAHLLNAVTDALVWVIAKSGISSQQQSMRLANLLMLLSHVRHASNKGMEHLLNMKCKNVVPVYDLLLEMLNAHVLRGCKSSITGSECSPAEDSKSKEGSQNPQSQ
# Assay Remarks: displacement of fluorescent estrogen from ERbeta – cell-based, Cos7 ERbeta-GFP, flow cytometry, primary screen (AID 1210);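 also: 0% = DMSO vehicle wells and 100% = complete loss of labeled estradiol signal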
# Measurement Context: fluorescent estrogen binding, at 10 µM, stronger effect = higher value
The source made the active and inactive calls.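 The calls were made as follows: active = blocks over 70% of labeled estradiol binding at 10 µM, or over a set limit at 100 nM; inactive = the rest.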
Recorded Metric: inhibition

Look up inhibition for the entries below, preserving their order.
1. NS(=O)(=O)c1ccc2c(c1)C1C=CCC1C(C1CC=CCC1)N2 (stereo unspecified)
2. O=C(CSc1nnc(SCC(=O)c2ccco2)s1)c1ccco1
3. COc1ccc(OC)c(C(=O)CSc2nnc(-c3ccc(OC)c(OC)c3)o2)c1

14% (inactive)
56% (inactive)
49% (inactive)

Look up inhibition for the entries below, preserving their order.
1. Cc1ccc(N=Cc2c(O)n(-c3ccc4c(c3)OCO4)c(=O)c3ccccc23)cc1
2. COc1ccc(C(N)CCc2ccc(C)o2)cc1 (stereo unspecified)
3. COc1ccc(C2Nc3ccccc3C(=O)N2c2ccc(C)cc2)cc1COc1ccccn1 (stereo unspecified)
4. O=C(O)c1ccc(Cl)c2c1C1C=CCC1C(c1ccccn1)N2 (stereo unspecified)
5. Nc1ccc(-n2cnc3cc([N+](=O)[O-])ccc32)cc1
6. CCc1cc2c3c(c(=O)oc2cc1OCC(=O)O)CCCC3

1. 15% (inactive)
2. 38% (inactive)
3. 44% (inactive)
4. 28% (inactive)
5. 34% (inactive)
6. 20% (inactive)

Look up inhibition for the entries below, preserving their order.
1. N=C1C(c2nc3ccccc3[nH]2)=C(O)CN1c1ccc(CC(=O)O)cc1
2. O=C(Nc1sc2c(c1C(=O)O)CCC2)c1ccccc1

["26% (inactive)", "46% (inactive)"]

* * *

Task for the reader: assign each of the following molecules its reported inhibition.
# Test System: Estrogen receptor beta (Homo sapiens) (UniProt Q92731)
# Assay Remarks: displacement of fluorescent estrogen from ERbeta – cell-based, Cos7 ERbeta-GFP, flow cytometry, primary screen (AID 1210);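 also: 0% = DMSO vehicle wells and 100% = complete loss of labeled estradiol signal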
# Measurement Context: fluorescent estrogen binding, at 10 µM, stronger effect = higher value
The source made the active and inactive calls.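 How the source made its calls: active means blocks over 70% of labeled estradiol binding at 10 µM, or over a set limit at 100 nM; inactive means the rest.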

Recorded results for 5 molecules are shown here.
Molecule	Test System	Result
O=C(NCc1ccco1)c1cc2c(s1)CSC2	Estrogen receptor beta (Homo sapiens) (UniProt Q92731)	32% (inactive)
O=c1oc2cc(O)ccc2c2c1CCCC2	Estrogen receptor beta (Homo sapiens) (UniProt Q92731)	12% (inactive)
CCn1c(SCC(=O)Nc2cccc(F)c2)nnc1-c1cc2cc(Br)ccc2o1	Estrogen receptor beta (Homo sapiens) (UniProt Q92731)	39% (inactive)
O=c1oc2c(CN3CCCC3)c(O)ccc2c2c1CCC2	Estrogen receptor beta (Homo sapiens) (UniProt Q92731)	22% (inactive)
O=C1CC(=O)N2N=C(c3ccc([N+](=O)[O-])cc3)SC2=N1	Estrogen receptor beta (Homo sapiens) (UniProt Q92731)	45% (inactive)

Look up inhibition for the entries below, preserving their order.
1. Oc1ccc(-c2cn3c(n2)SCC3)cc1
2. Cc1nn(-c2ccc(Cl)cc2)c2sc(C(=O)N3CCN(c4ccccn4)CC3)cc12

1. 64% (inactive)
2. 50% (inactive)

Look up inhibition for the entries below, preserving their order.
1. CCOc1cc(C2CC(=O)c3c(ccc4ccccc34)N2)ccc1O (stereo not drawn)
2. COc1ccc(C2Nc3ccccc3C(=O)N2c2ccc(Cl)cc2)cc1Cn1cc([N+](=O)[O-])cn1 (stereo not drawn)
3. CCOc1cc2c(c([N+](=O)[O-])c1)NC(c1ccc(Cl)cc1)C1CC=CC21 (stereo not drawn)
4. Cc1nn2cc(-c3ccc(N)cc3)nc2s1
5. CCCC1Nc2ccc(C(=O)O)cc2C2C=CCC12 (stereo not drawn)

["19% (inactive)", "63% (inactive)", "16% (inactive)", "23% (inactive)", "44% (inactive)"]

* * *

# Test System: Estrogen receptor beta (Homo sapiens)
# Assay Remarks: displacement of fluorescent estrogen from ERbeta – cell-based, Cos7 ERbeta-GFP, flow cytometry, primary screen (AID 1210);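 also: 0% = DMSO vehicle wells and 100% = complete loss of labeled estradiol signal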
# Measurement Context: fluorescent estrogen binding, at 10 µM, stronger effect = higher value
Respond with TRUE for inhibition values of 20% and above, FALSE for values below.

Compound	Assigned Label
Clc1ccc2nc(-c3ccccn3)c(Nc3ccc4c(c3)OCO4)n2c1	TRUE
CNc1nnc(-c2cc3cc(Cl)ccc3oc2=O)s1	FALSE
O=C1CC(c2ccc3c(c2)OCO3)c2ccc3ccccc3c2N1 (stereo unspecified)	FALSE

Check this compound for inhibition at or above 20%: Oc1ccc(/C=C/c2nc(-c3ccccc3O)n(-c3ccccc3)n2)cc1 TRUE

Check this compound for inhibition at or above 20%: Cn1nc([N+](=O)[O-])c2c(-c3nc4ccccc4s3)c(N)n(C3CCCCC3)c2c1=O FALSE

Check this compound for inhibition at or above 20%: O=C1/C(=C\c2ccco2)SC(=S)N1c1ccc(O)cc1 TRUE

* * *

# Test System: Estrogen receptor beta (Homo sapiens)
# Assay Remarks: displacement of fluorescent estrogen from ERbeta – cell-based, Cos7 ERbeta-GFP, flow cytometry, primary screen (AID 1210);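 also: 0% = DMSO vehicle wells and 100% = complete loss of labeled estradiol signal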
# Measurement Context: fluorescent estrogen binding, at 10 µM, stronger effect = higher value
Recorded Metric: inhibition (%)
Answers are plain numbers, in %.

Recorded results for 5 compounds are shown here.
Compound	Test System	Units	inhibition
CN=c1scc(C)n1/N=C/c1ccc(O)cc1O	Estrogen receptor beta (Homo sapiens)	%	58
COCCNC(=O)c1c(N)n(/N=C/c2cccs2)c2nc3ccccc3nc12	Estrogen receptor beta (Homo sapiens)	%	29
O=[N+]([O-])c1ccc(Cl)c2c1C1C=CCC1C(c1ccccn1)N2 (stereo not given)	Estrogen receptor beta (Homo sapiens)	%	0
CCN(CC)c1ccc(-c2nn3c(-c4ccccc4OC)nnc3s2)cc1	Estrogen receptor beta (Homo sapiens)	%	32
O=C(O)C1CSC(c2coc3ccccc3c2=O)N1 (stereo not given)	Estrogen receptor beta (Homo sapiens)	%	26

Look up inhibition for the entries below, preserving their order.
1. Oc1ccc(-c2csc(-c3c[nH]c4ccccc34)n2)c(O)c1
2. O=c1c2c([nH]c3ccccc13)C(=C1CCCC1)CC2
3. CCCc1cc(=O)oc2c(C)c(OC3CCCCC3=O)ccc12 (stereo not given)
4. CCc1oc2ccccc2c1C(=O)c1cc(Br)c(O)c(Br)c1
5. O=C(CCCn1c(=S)[nH]c2ccccc2c1=O)N1CCN(c2cccc(Cl)c2)CC1

1: 81; 2: 42; 3: 19; 4: 45; 5: 73

Look up inhibition for the entries below, preserving their order.
1. CCOC(=O)C1=c2/c(=C/c3ccccc3OC)c(N)c(C#N)n2C(=O)C(c2ccccc2OC)S1 (stereo not given)
2. Cc1ccc2nc(/C(C#N)=C\c3ccc(N4CCCCC4)c([N+](=O)[O-])c3)[nH]c2c1

1: 34; 2: 15

Look up inhibition for the entries below, preserving their order.
1. Cc1ccc2occ(C3NC(C(=O)O)CS3)c(=O)c2c1 (stereo not given)
2. COc1cc([N+](=O)[O-])cc2c1N[C@@H](c1ccc(C(=O)O)cc1)[C@H]1CC=C[C@@H]21
3. COc1ccc(NC(=O)CSc2nc3ccccc3c3nc4ccccc4n23)cc1
4. O=c1cc(O)c2sc(Nc3ccc(F)cc3)nc2[nH]1
5. Cc1nnc(Oc2ccccc2F)c2ccccc12

1: 62; 2: 42; 3: 38; 4: 8; 5: 47

* * *

Task for the reader: assign each of the following compounds its reported inhibition.
# Test System: Estrogen receptor beta (Homo sapiens) (UniProt Q92731)
# Assay Remarks: displacement of fluorescent estrogen from ERbeta – cell-based, Cos7 ERbeta-GFP, flow cytometry, primary screen (AID 1210);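 also: 0% = DMSO vehicle wells and 100% = complete loss of labeled estradiol signal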
# Measurement Context: fluorescent estrogen binding, ligand binding inhibition, at 0.1 µM, stronger effect = higher value
Numbers only, in %.

Compound	Numeric Readout
COc1ccc(C)cc1-n1nnnc1SCC(=O)NC(=O)NCc1ccco1	12
Cc1ccc(S(=O)(=O)N2CCCCC2)cc1C(=O)Nc1ncn[nH]1	23
C/C(N)=C(/C#N)C(=O)CSc1nnc(COc2ccccc2Cl)o1	44
O=C(c1cc2ncc(Br)cn2n1)N1CCOCC1	41

Look up inhibition for the entries below, preserving their order.
1. CSC1=N/C(=C\c2ccc(Br)o2)C(=O)S1
2. O=C(O)C1CSC(c2coc3ccccc3c2=O)N1 (centres undefined)
3. COc1ccc(N=C2NC(=O)S/C2=C\c2ccc(N(C)C)cc2)cc1
4. Nc1ccc2nc(-c3ccc(Cl)cc3)[nH]c2c1

1. 43
2. 46
3. 4
4. 16

Look up inhibition for the entries below, preserving their order.
1. CC1(N2CCOCC2)CC2(O)C(=[N+]1[O-])CCc1nonc12 (centres undefined)
2. CC(Cc1ccc(O)c(O)c1)C(C)Cc1ccc(O)c(O)c1 (centres undefined)

1: 62; 2: 18

* * *

# Test System: Estrogen receptor beta (Homo sapiens)
# Assay Remarks: displacement of fluorescent estrogen from ERbeta – cell-based, Cos7 ERbeta-GFP, flow cytometry, primary screen (AID 1210);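 also: 0% = DMSO vehicle wells and 100% = complete loss of labeled estradiol signal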
# Measurement Context: fluorescent estrogen binding, ligand binding inhibition, at 0.1 µM, stronger effect = higher value
Note to self: class labels come from recorded inhibition, ranges listed here: bottom range: < 10%; center range: ≥ 10% and < 20%; top range: ≥ 20%

Answered cases to consult:
Molecule	Test System	Assigned Label
CC(=O)c1ccc(NCC(=O)N2CCN(c3ccccc3)CC2)cc1	Estrogen receptor beta (Homo sapiens)	top range
CCOc1cc(C2CC(=O)c3c(ccc4ccccc34)N2)ccc1O (stereo unspecified)	Estrogen receptor beta (Homo sapiens)	bottom range
O=c1cc(O)c2sc(Nc3ccc(F)cc3)nc2[nH]1	Estrogen receptor beta (Homo sapiens)	bottom range
CN1CCC(=NNC(=O)c2cn(-c3ccccc3)nc2-c2ccccc2)CC1	Estrogen receptor beta (Homo sapiens)	bottom range
COc1cc(OC)cc(C(=O)NC2CCN(C(=O)N3c4ccccc4Sc4ccccc43)CC2)c1	Estrogen receptor beta (Homo sapiens)	center range
COc1ccc2[nH]c3c(c2c1)CCn1c-3nc2ccccc2c1=O	Estrogen receptor beta (Homo sapiens)	top range
CCSc1nnc(NC(=O)C2Cc3ccccc3CN2C(=O)c2ccco2)s1 (stereo unspecified)	Estrogen receptor beta (Homo sapiens)	top range
CCN(CC)c1ccc(-c2nn3c(-c4ccccc4OC)nnc3s2)cc1	Estrogen receptor beta (Homo sapiens)	top range

Here is another molecule to look at.
Band for COc1ccc2c(c1)[nH]c1c(=O)n(N)cnc12 ? top range

Data origin: PubChem BioAssay AID1210
